What combination Emax was measured for each of the following?
Test system: EW-13 (Ewing's Sarcoma)
protocol-notes: combination Emax (second highest fraction inhibited in the dose matrix, 72 h); higher = more inhibition; extreme values may be limits of the assay
Just the number, please.

Output measured combination Emax for this item: CN(CCO)CC[C@H](CSc1ccccc1)Nc1ccc(S(=O)(=O)NC(=O)c2ccc(N3CCC([C@@H](O)c4ccccc4-c4ccc(Cl)cc4)CC3)cc2)cc1S(=O)(=O)C(F)(F)F [AZD4320] + C=CCn1c(=O)c2cnc(Nc3ccc(N4CCN(C)CC4)cc3)nc2n1-c1cccc(C(C)(C)O)n1 [AZD1775] (first compound max 1 µM, partner max 1 µM)
0.665

State its combination Emax for this compound: NC1(C(=O)N[C@@H](CCO)c2ccc(Cl)cc2)CCN(c2ncnc3[nH]ccc23)CC1 [Capivasertib] + CC(=O)c1c(C)c2cnc(Nc3ccc(N4CCNCC4)cn3)nc2n(C2CCCC2)c1=O [Palbociclib] (first compound max 10 µM, 7x7, partner max 10 µM)
0.296

Please indicate combination Emax recorded for Cc1c2c(nn1C)CSCc1cc(n(C)n1)CSc1cc(c3ccccc3c1)OCCCc1c(C(=O)O)n(C)c3c-2c(Cl)ccc13 [AZD5991] + CCN(CCO)CCCOc1ccc2c(Nc3cc(CC(=O)Nc4cccc(F)c4)[nH]n3)ncnc2c1 [AZD2811] (first compound max 1 µM, 7x7, partner max 1 µM)
0.454

Return the recorded combination Emax value; entry: Cn1cnc2c(F)c(Nc3ccc(Br)cc3Cl)c(C(=O)NOCCO)cc21 [Selumetinib] + C=CCn1c(=O)c2cnc(Nc3ccc(N4CCN(C)CC4)cc3)nc2n1-c1cccc(C(C)(C)O)n1 [AZD1775] (first compound max 10 µM, partner max 1 µM)
0.0949

Check the records and state combination Emax for COc1nnc2ccc(N3CCC(c4ccc(OCCN5CCN(C)C(=O)[C@H]5C)cc4)CC3)nn12 [AZD5153] + CN(CC[C@H](CSC1=CC=CC=C1)NC2=C(C=C(C=C2)S(=O)(=O)NC(=O)C3=CC=C(C=C3)N4CCC(CC4)[C@H](C5=CC=CC=C5C6=CC=C(C=C6)Cl)O)S(=O)(=O)C(F)(F)F)CCO [AZD4320] (first compound max 1 µM, 7x7, partner max 1 µM)
0.818

Consider the compound CN(C)CCCOc1ccc(-c2ccc3ncc4c(c3c2)n(C2CCOCC2)c(=O)n4C)cn1 [AZD0156] + C[C@@H]1COCCN1C2=NC(=NC(=C2)C3(CC3)[S@](=N)(=O)C)C4=C5C=CNC5=NC=C4 [AZD6738] (first compound max 1 µM, 7x7, partner max 10 µM) and give its recorded combination Emax.
0.581

Supply combination Emax value. Item: COc1nnc2ccc(N3CCC(c4ccc(OCCN5CCN(C)C(=O)[C@H]5C)cc4)CC3)nn12 [AZD5153] + CC1(C)CCC(CN2CCN(c3ccc(C(=O)NS(=O)(=O)c4ccc(NCC5CCOCC5)c([N+](=O)[O-])c4)c(Oc4cnc5[nH]ccc5c4)c3)CC2)=C(c2ccc(Cl)cc2)C1 [Venetoclax] (first compound max 1 µM, 7x7, partner max 1 µM)
0.481

###

Tested on: NB7 (Neuroblastoma)
protocol-notes: combination Emax (second highest fraction inhibited in the dose matrix, 72 h); higher = more inhibition; extreme values may be limits of the assay
outcome-measure: combination Emax
Could you keep your reply to the number by itself?

Please report the measured combination Emax for O=C(c1cc(Cc2n[nH]c(=O)c3ccccc23)ccc1F)N1CCN(C(=O)C2CC2)CC1 [Olaparib] + COc1nnc2ccc(N3CCC(c4ccc(OCCN5CCN(C)C(=O)[C@H]5C)cc4)CC3)nn12 [AZD5153] (first compound max 10 µM, 7x7, partner max 1 µM)
0.359

// fetch combination Emax given entry NC1(C(=O)N[C@@H](CCO)c2ccc(Cl)cc2)CCN(c2ncnc3[nH]ccc23)CC1 [Capivasertib] + CC(=O)c1c(C)c2cnc(Nc3ccc(N4CCNCC4)cn3)nc2n(C2CCCC2)c1=O [Palbociclib] (first compound max 10 µM, 7x7, partner max 10 µM)
0.689

Look up and report measured combination Emax for this entry: COc1nnc2ccc(N3CCC(c4ccc(OCCN5CCN(C)C(=O)[C@H]5C)cc4)CC3)nn12 [AZD5153] + C=CCn1c(=O)c2cnc(Nc3ccc(N4CCN(C)CC4)cc3)nc2n1-c1cccc(C(C)(C)O)n1 [AZD1775] (first compound max 1 µM, partner max 1 µM)
0.587

Check the records and state combination Emax for CN(CCO)CC[C@H](CSc1ccccc1)Nc1ccc(S(=O)(=O)NC(=O)c2ccc(N3CCC([C@@H](O)c4ccccc4-c4ccc(Cl)cc4)CC3)cc2)cc1S(=O)(=O)C(F)(F)F [AZD4320] + C[C@@H]1COCCN1C2=NC(=NC(=C2)C3(CC3)[S@](=N)(=O)C)C4=C5C=CNC5=NC=C4 [AZD6738] (first compound max 1 µM, 7x7, partner max 10 µM)
0.691

Please look at this compound and report its combination Emax: C[C@@H]1COCCN1c1cc(C2([S@](C)(=N)=O)CC2)nc(-c2ccnc3[nH]ccc23)n1 [AZD6738] + Nc1ccn([C@@H]2O[C@H](CO)[C@@H](O)C2(F)F)c(=O)n1 [Gemcitabine] (first compound max 10 µM, 7x7, partner max 0.3 µM)
0.903

Answer with reported combination Emax of CC1(C)CCC(CN2CCN(c3ccc(C(=O)NS(=O)(=O)c4ccc(NCC5CCOCC5)c([N+](=O)[O-])c4)c(Oc4cnc5[nH]ccc5c4)c3)CC2)=C(c2ccc(Cl)cc2)C1 [Venetoclax] + CN(C)CCCOc1ccc(-c2ccc3ncc4c(c3c2)n(C2CCOCC2)c(=O)n4C)cn1 [AZD0156] (first compound max 1 µM, 7x7, partner max 1 µM)
0.18

Recall and state the measured combination Emax for Cc1c2c(nn1C)CSCc1cc(n(C)n1)CSc1cc(c3ccccc3c1)OCCCc1c(C(=O)O)n(C)c3c-2c(Cl)ccc13 [AZD5991] + Cc1cc2ncnn2cc1Nc1ncc2c(n1)n(C1CCOCC1)c(=O)n2C [AZD7648] (first compound max 1 µM, 7x7, partner max 10 µM) .
0.546
